protocol.description: NCI Yeast Anticancer Drug Screen. Data for the cln2 rad14 strain (AID 165)
cond: S. cerevisiae cln2 rad14 strain, at 5.0 µM (retest, dose inferred, filed as 0.5)
About 79,000 compounds went through this panel and 15% of them were active in at least one assay; those are over-represented in the sample as a whole. Activity calls are given as the source filed them. Rule as the data show it: active = growth inhibition above about 70%; inactive = the rest.
I would appreciate it if you answered using one of these outcomes: T (active), F (inactive)

Take a look at these entries with their results.
Cc1cc[n+](C2C(=O)c3ccccc3C(=O)C2Nc2cc(Cl)ccc2Cl)cc1 (centres undefined) : F
Cc1ccc(S(=O)(=O)N=S(=O)(CCCl)CCCl)cc1 : F
O=C(CBr)NC1CCCCC1 : F
Cc1ccc(C(=O)C2C(c3ccccc3)N2C2CCCCC2)cc1 (centres undefined) : F
Cc1cc(N(CCCl)CCCl)ccc1C1N(Cc2ccc(Cl)cc2Cl)CCCN1Cc1ccc(Cl)cc1Cl : F
CC(=O)c1ccccc1O.CO.CO.[Cl][Ta][Cl] : F
CC(Br)C(=O)C(CCN(C)C)(c1ccccc1)c1ccc(Br)s1 (centres undefined) : F
CC(=O)OCC12CCC(C)=CC1OC1C(O)C(OC(C)=O)C2(C)C12CO2 (centres undefined) : T

[in] Short answer needed: outcome of this test for O=C1C=C(N2CC2)C(=O)C(N2CC2)=C1N1CC1 ?
[out] T

[in] Short answer needed: outcome of this test for CC1(C)N=C(N)N=C(N)N1c1ccc(OCC(=O)Nc2cccc(S(=O)(=O)F)c2)c(Cl)c1 ?
[out] F

[in] Short answer needed: outcome of this test for O=C(O)C1CC2c3ccccc3C1([N+](=O)[O-])c1ccccc12 (centres undefined) ?
[out] F

[in] Short answer needed: outcome of this test for CO/C1=C\C(C)=C\C(C)C(O)C(C)C/C(C)=C/C=C/C(OC)C(C(C)C(O)C(C)C2(O)CC(O)C(C)C(C(C)C)O2)OC1=O (centres undefined) ?
[out] F

[in] Short answer needed: outcome of this test for CC(C)C1(NC(=O)C2CC3c4cccc5[nH]cc(c45)CC3N(C)C2)OC2(O)C3CCCN3C(=O)C(Cc3ccccc3)N2C1=O (centres undefined) ?
[out] F

[in] Short answer needed: outcome of this test for COc1cc([N+](=O)[O-])c2ncccc2c1[N+](=O)[O-] ?
[out] F

[in] Short answer needed: outcome of this test for CC1CCCC[N-]1.CC1CCCC[N-]1.N#C[S-].N#C[S-].[Cd] (centres undefined) ?
[out] F
